Each record here notes measured Enzymatic activity (ATP) Mean (% activity).
System: dCK-C3S-S74E
Sequence (P27707 whole entry S74E, form open): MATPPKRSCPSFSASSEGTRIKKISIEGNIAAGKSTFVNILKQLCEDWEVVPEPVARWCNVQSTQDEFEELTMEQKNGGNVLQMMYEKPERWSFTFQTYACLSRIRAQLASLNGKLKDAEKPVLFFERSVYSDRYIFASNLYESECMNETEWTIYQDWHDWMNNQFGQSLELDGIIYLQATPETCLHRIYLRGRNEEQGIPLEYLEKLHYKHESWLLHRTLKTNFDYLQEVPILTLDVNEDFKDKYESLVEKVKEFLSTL
Assay: Enzymatic assay (PK/LDH coupled), dC phosphorylation by dCK in the presence of ATP
Type: biochemical, human
Settings: 20 µM

{"Smiles string": "Cc1ccc(NC(=O)c2ccc(CN3CCN(C)CC3)cc2)cc1Nc1nc(-c2nccc(N)n2)cs1", "Study target": "dCK-C3S-S74E", "Result": "3.9%"}

Request the reported Enzymatic activity (ATP) Mean (% activity) associated with Cc1ccc(-c2ccc(CCN3CCN(C)CC3)cc2)cc1Nc1nc(-c2nccc(N)n2)cs1 8.1%

Now consider Cc1ccc(NC(=O)c2ccc(CN3CCN(C)CC3)cc2)cc1Nc1nc(-c2nc(N)cc(N)n2)cs1 . 2.6%

Here is the next molecule: Cc1ccc(-c2ccc(CN3CCN(C)CC3)cc2)cc1Nc1nc(-c2nccc(N)n2)cs1 7.8%

All values here come from paper PMC10227015.
